- TESTED ON: RSV F on RSV subtype A virus (RSV-A2) (Respiratory Syncytial Virus, subtype A, …, UniProt P03420 26-574)
- PROTOCOL DETAILS: cell-based or functional assay

BINDER	Neutralization IC50 (RSV subtype A)
ADI-43642 (antibody, V domains shown, also called Ab 947; Antibody Number 947) VH: EVQLLESGGGLVKPGGSLRLSCAASGFTFSSYSMNWVRQAPGKGLEWVSSISSSSSYIYYADSVKGRFTISRDNAKNSLYLQMNSLRAEDTAVYYCARDGADSSYYYYMDVWGKGTTVTVSS VL: QAVVTQPPSVSGAPGQRVTISCTGSSSNIGAGYDVHWYQQLPGTAPKLLIYGNSNRPSGVPDRFSGSKSGTSASLAITGLQAEDEADYYCQSYDSSLSGSVFGGGTKLTVL	> 25 µg/mL
ADI-41836 (antibody, V domains shown) VH: EVQLLESGAEVKKPGASVKVSCRASGYTFTSNTLHWVRQAPGQGLEWMGWINADNGNTRYSQKFQGRVTITRDTSANTAYMELSSLISEDTAVYYCAREWSGFWSGLNWFEPWGQGTLVTVSS VL: QSVLTQPPSVSGAPGQRVTISCTGSSSNIGSGNDVHWYQQFPGTAPKVLIYVNSIRPSGVSDRFSGSKSGTSASLAITGLRAEDEADYYCQSYDSSLNGVAFGGGTKLTVL	> 25 µg/mL
ADI-41820 (antibody, V domains shown, also called Ab 926; Antibody Number 926) VH: EVQLVESGGGVVQPGRSLRLSCAVSGFTFSTYGMHWVRQTPGRGLEWVAVISYDGNHKYYADSVMGRFTISRDNSKDTLYLQVNSLRPEDSAVYYCAKDRIHCPNGVCYVHSSFYGLDVWGQGTTVTVSS VL: QTVVTQEPSLTVSPGGTVTLTCGSSTGAVTSGHYPYWLQQKPGQAPRTLIYDTTNKDSWTPARFSGSLLGGKAALTLSGAQPEDEAQYYCLLSFNGPYWVFGGGTKVTVL	> 25 µg/mL
